tested on: non-small cell lung cancer cell lines; assay: NCI five-dose testing, subpanel mean; format: cell-based; settings: subpanel II: non-small cell lung cancer
Quick list: IC50 per entry.
Measured quantity: IC50

INSERT INTO measurements (smiles_str, measured_quantity, result) VALUES
  ('O=S(=O)(NCCNc1cc(-c2cn(-c3ccccc3)nc2-c2cccc(O)c2)ccn1)c1ccc(Br)cc1', 'IC50', '2.69 µM'),
  ('COc1cccc(-c2nn(-c3ccccc3)cc2-c2ccnc(NCCNS(=O)(=O)c3ccc(C(F)(F)F)cc3)c2)c1', 'IC50', '6.36 µM'),
  ('O=S(=O)(NCCNc1cc(-c2cn(-c3ccccc3)nc2-c2cccc(O)c2)ccn1)c1ccc(Cl)cc1', 'IC50', '3.16 µM');
